- target entity: E3 ubiquitin-protein ligase TRIM58 (Homo sapiens, UniProt Q8NG06)
- Sequence (Q8NG06 whole entry): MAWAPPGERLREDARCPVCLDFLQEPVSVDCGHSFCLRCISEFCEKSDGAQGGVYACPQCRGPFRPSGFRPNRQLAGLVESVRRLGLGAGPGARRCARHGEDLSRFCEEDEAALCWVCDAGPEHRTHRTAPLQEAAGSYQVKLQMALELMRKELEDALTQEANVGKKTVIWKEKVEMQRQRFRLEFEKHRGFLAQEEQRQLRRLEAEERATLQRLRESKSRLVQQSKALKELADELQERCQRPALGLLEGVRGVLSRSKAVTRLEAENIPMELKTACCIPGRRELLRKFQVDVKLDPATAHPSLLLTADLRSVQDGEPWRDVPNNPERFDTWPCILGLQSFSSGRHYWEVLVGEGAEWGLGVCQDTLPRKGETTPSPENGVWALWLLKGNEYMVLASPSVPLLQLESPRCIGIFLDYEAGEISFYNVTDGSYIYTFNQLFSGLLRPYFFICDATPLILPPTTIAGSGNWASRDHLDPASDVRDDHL
- experimental details: Displacement of Ac-DKSDLKAELERKK-C(BODIPY-FL-M)-RLAQIREEKKRKEE-NH2 peptide probe from TRIM58 (279 to 466 residue) (unknown origin) preincubated for 30 mins followed by probe addition by fluorescence polarization method
// assign t if EC50 falls strictly below 10 µM, else f (ties count as f)

Below are worked cases with known answers.
c1ccc(-c2ccc3nc(NCC4CC4)nc(NCC4CCNCC4)c3c2)cc1    t
CCCCCCNc1nc(NCCCN(C)C)nc2ccc(-c3ccccc3)cc12    t
CNc1nc(NC)c2cc(-c3ccccc3)ccc2n1    f
CNc1nc(OCC2CCNCC2)c2cc(-c3ccccc3)ccc2n1    f
CN(C)CCCNc1nc(NCCc2ccccc2)c2cc(-c3ccccc3)ccc2n1    f
c1ccc2cc(-c3nn[nH]n3)c(NCC3CCNCC3)cc2c1    f
CNc1nc(NCC2CCNCC2)c2cc(-c3ccccc3)ccc2n1    f
CNc1nc(NCC2CCNCC2)c2ccccc2n1    f

Does CNc1nc(NCC2CCNCC2)c2cc(C3CCCCC3)ccc2n1 have EC50 strictly under 10 µM?
t

Identify whether the molecule CN(C)CCCNc1nc(NCC2CCNCC2)c2cc(-c3ccccc3)ccc2n1 records EC50 below 10 µM.
t

Input CNCCCNc1nc(NCC2CCNCC2)c2cc(-c3ccccc3)ccc2n1 ; condition: EC50 strictly below 10 µM. Does it hold?
f

====

- experimental details: Apparent permeability across apical to basolateral side in low efflux MDCK cells
- Format: ADME, cell-based, Canis lupus familiaris
- condition summary: dog
quantity measured: Papp A→B (×10⁻⁶ cm/s)
Answers are plain numbers, in ×10⁻⁶ cm/s.

CCCCCCNc1nc(NCCCN(C)C)nc2ccc(-c3ccccc3)cc12    19
CNc1nc(NCC2CCNCC2)c2cc(C3CCCCC3)ccc2n1    1.1
CNCCCNc1nc(NCC2CCNCC2)c2cc(-c3ccccc3)ccc2n1    0.6
CN(C)CCCNc1nc(NCCc2ccccc2)c2cc(-c3ccccc3)ccc2n1    24
c1ccc(-c2ccc3nc(NCC4CC4)nc(NCC4CCNCC4)c3c2)cc1    3.5

Dear colleague, could you please provide Papp A→B for the compounds listed below?
1. CNc1nc(NCC2CCNCC2)c2cc(-c3ccccc3)ccc2n1
2. CNc1nc(NCC2CCNCC2)c2ccccc2n1
3. CNc1nc(OCC2CCNCC2)c2cc(-c3ccccc3)ccc2n1

1.6
1.6
29

====

- experimental details: Solubility of the compound at pH 6.8 by high-throughput equilibrium solubility assay
- Format: physicochemical
- condition summary: buffer
quantity measured: solubility thermodynamic (µM)
Numbers only, in µM.

Guide cases for solubility thermodynamic, answers given:
CCCCCCNc1nc(NCCCN(C)C)nc2ccc(-c3ccccc3)cc12    60
CN(C)CCCNc1nc(NCCc2ccccc2)c2cc(-c3ccccc3)ccc2n1    40
CNc1nc(NCC2CCNCC2)c2cc(-c3ccccc3)ccc2n1    80

For each entry beneath this line, provide reported solubility thermodynamic.
1. c1ccc(-c2ccc3nc(NCC4CC4)nc(NCC4CCNCC4)c3c2)cc1
2. CNc1nc(NC)c2cc(-c3ccccc3)ccc2n1

20
100

====

- experimental details: Lipophilicity, log D of the compound in octanol/buffer system at pH 7.4 by shake-flask based LC/MSMS analysis
- Type: physicochemical
Rule: logD below 0.5 gives y, anything at or above gives n.

The examples below pair each entry with its known result.
CNc1nc(NC)c2cc(-c3ccccc3)ccc2n1    n
CNc1nc(OCC2CCNCC2)c2cc(-c3ccccc3)ccc2n1    y
CNc1nc(NCC2CCNCC2)c2ccccc2n1    y
CN(C)CCCNc1nc(NCC2CCNCC2)c2cc(-c3ccccc3)ccc2n1    y
c1ccc(-c2ccc3nc(NCC4CC4)nc(NCC4CCNCC4)c3c2)cc1    n

Threshold test, logD < 0.5: CN(C)CCCNc1nc(NCCc2ccccc2)c2cc(-c3ccccc3)ccc2n1
n

logD under 0.5? Item: CNCCCNc1nc(NCC2CCNCC2)c2cc(-c3ccccc3)ccc2n1
n

# TODO verify logD < 0.5 strictly for this molecule: CCCCCCNc1nc(NCCCN(C)C)nc2ccc(-c3ccccc3)cc12
n

====

- experimental details: Solubility of the compound at pH 6.8 by high-throughput equilibrium solubility assay
- Type: physicochemical
- condition summary: buffer
quantity measured: solubility thermodynamic

CNc1nc(NCC2CCNCC2)c2cc(C3CCCCC3)ccc2n1    > 750 µM

Dear colleague, could you please provide solubility thermodynamic for the compounds listed below?
1. CNCCCNc1nc(NCC2CCNCC2)c2cc(-c3ccccc3)ccc2n1
2. CNc1nc(NCC2CCNCC2)c2ccccc2n1
3. CNc1nc(OCC2CCNCC2)c2cc(-c3ccccc3)ccc2n1
4. CN(C)CCCNc1nc(NCC2CCNCC2)c2cc(-c3ccccc3)ccc2n1

["> 750 µM", "> 750 µM", "> 750 µM", "> 1000 µM"]
